Values compiled from patent US8674113B2.

Test system: recombinant human mPGES-1 (Homo sapiens (Human), UniProt O14684)
Sequence (O14684 whole entry): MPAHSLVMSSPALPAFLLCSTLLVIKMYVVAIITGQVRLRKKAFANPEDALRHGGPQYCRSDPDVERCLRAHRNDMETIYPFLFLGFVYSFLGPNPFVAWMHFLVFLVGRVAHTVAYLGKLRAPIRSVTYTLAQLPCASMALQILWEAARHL
Assay name: mPGES-1 enzyme assay (HTRF detection of PGE2)
Type: biochemical
Particulars: recombinant human mPGES-1 microsomes, PGH2 2 μM, 60 seconds; read-out: mPGES-1 inhibitory effect IC50 in the enzyme assay
# key: entry, value: IC50
# output: bare number, implied unit nM

Worked cases, IC50 given:
CC(C)(C)C(=O)NCc1ccc(Cl)c(Nc2nc3cc(C(=O)N[C@H]4CC[C@H](C(F)(F)F)CC4)c(N4CCC(C(F)(F)F)CC4)cc3n2CC(F)F)c1Cl; 1
Cn1c(Nc2c(Cl)ccc(CNC(=O)C(C)(C)C)c2Cl)nc2cc(C(=O)N[C@H]3CC[C@H](C(F)(F)F)CC3)c(N3CCOCC3)cc21; 4
Cn1c(Nc2c(Cl)ccc(CNC(=O)C(C)(C)C)c2F)nc2cc(C(=O)Nc3ccc(OC(F)(F)F)cc3)c(N3CC[C@@H](F)C3)cc21; 2

Kindly review the next compound as well.
For `CC(C)(O)Cn1c(Nc2c(Cl)ccc(CNC(=O)C(C)(C)C)c2Cl)nc2cc(C(=O)Nc3ccc(OC(F)(F)F)cc3)c(N3CCOCC3)cc21` the compound record lists IC50 as 2
